Tested on: Enterococcus gallinarum
Test: Antibacterial activity against Enterococcus gallinarum
Format: functional
readout kind: MIC90 (µg/mL)

INSERT INTO measurements (molecule, readout_kind, value_units, numeric_value) VALUES
  ('C[C@H]1COc2c(N3CCN(C)CC3)c(F)cc3c(=O)c(C(=O)O)cn1c23.C[C@H]1COc2c(N3CCN(C)CC3)c(F)cc3c(=O)c(C(=O)O)cn1c23.O', 'MIC90', 'µg/mL', 2),
  ('Cc1c(N2CC[C@@H]([C@H](C)N)C2)c(F)cc2c(=O)n(N)c(=O)n(C3CC3)c12', 'MIC90', 'µg/mL', 0.25),
  ('Cc1c(N2CC[C@@H]([C@H](C)N)C2)c(F)cc2c(=O)[nH]c(=O)n(C3CC3)c12', 'MIC90', 'µg/mL', 0.5),
  ('COc1c(N2CCNC(C)C2)c(F)cc2c(=O)c(C(=O)O)cn(C3CC3)c12 (stereo not given)', 'MIC90', 'µg/mL', 1),
  ('C[C@H]1NCc2cc(-c3ccc4c(=O)c(C(=O)O)cn(C5CC5)c4c3OC(F)F)ccc21', 'MIC90', 'µg/mL', 0.2);
